The reported measurements were obtained from patent US7776833B2.

molecules and their reported Nitrites, hippocampus
system: nitrites and nitrates (NOx-); assay: Measurement of nitrates/nitrites (NOx-) in brain regions after the morphine abstinence experiment; format: in vivo, Wistar rats; conditions: Morphine + compound, 3 x 20 mg/kg intramuscularly; one value for the three compounds

STRUCTURE	SYSTEM TESTED	Nitrites, hippocampus
O=c1[nH][nH]c(=O)c2nccnc12.[Li]	nitrites and nitrates (NOx-)	5.27 ± 0.41 nmol/mg of protein
O=c1[nH]n([C@@H]2O[C@H](CO)[C@@H](O)[C@H]2O)c(=O)c2nccc(O)c12.[Na]	nitrites and nitrates (NOx-)	5.44 ± 0.43 nmol/mg of protein
Nc1cccc2c(=O)n([C@@H]3O[C@H](CO)[C@@H](O)[C@H]3O)[nH]c(=O)c12.[Na]	nitrites and nitrates (NOx-)	5.24 ± 0.49 nmol/mg of protein
O=c1[nH][nH]c(=O)c2c(Br)ncnc12.[K]	nitrites and nitrates (NOx-)	5.31 ± 0.33 nmol/mg of protein
O=C([O-])c1ccc2c(=O)[nH][nH]c(=O)c2c1.O=C([O-])c1ccc2c(=O)[nH][nH]c(=O)c2c1.[Na+].[Na+]	nitrites and nitrates (NOx-)	5.24 ± 0.49 nmol/mg of protein
O=c1[nH]n([C@@H]2O[C@H](CO)[C@@H](O)[C@H]2O)c(=O)c2nc(Br)ncc12.[Na]	nitrites and nitrates (NOx-)	5.31 ± 0.33 nmol/mg of protein
O=C([O-])c1cnc2c(=O)[nH]n([C@@H]3O[C@H](CO)[C@@H](O)[C@H]3O)c(=O)c2n1.O=C([O-])c1cnc2c(=O)[nH]n([C@@H]3O[C@H](CO)[C@@H](O)[C@H]3O)c(=O)c2n1.[Na+].[Na+]	nitrites and nitrates (NOx-)	5.27 ± 0.41 nmol/mg of protein
